Here the recorded insecticidal ratio (ratio of the dead larvae) is given for each entry.
System: third stage larvae of Spodoptera litura
Assay: Test to larvae of Spodoptera litura (leaf immersion)
Format: in vivo
Details: efficacious component concentration 20 ppm; batata leaves immersed; 25° C.; after 7 days; average of two dishes
Protocol: • Sample Solution Preparation • Solvent: dimethylformamide 3 part by weight • Emulsifier: polyoxyethylene alkyl phenyl ether 1 part by weight To prepare a proper active compound, the active compound 1 part by weight was mixed with the above-mentioned solvent containing the above-mentioned emulsifier and the mixture was diluted with water to a prescribed concentration. […]
Provide the reading as a plain figure in %.

Answered cases to consult:
CCc1cc(C(F)(C(F)(F)F)C(F)(F)F)cc(C)c1NC(=O)c1cccc(NC(=O)c2cccc(Cl)c2Cl)c1 [Compound 47] :: 100
CCc1cc(C(F)(C(F)(F)F)C(F)(F)F)cc(C)c1NC(=O)c1cccc(NC(=O)c2ccccc2[N+](=O)[O-])c1 [Compound 53] :: 100
CCc1cc(C(F)(C(F)(F)F)C(F)(F)F)cc(C)c1NC(=O)c1cccc(NC(=O)c2ccccc2I)c1 [Compound 36] :: 100
CCc1cc(C(F)(C(F)(F)F)C(F)(F)F)cc(C)c1NC(=O)c1cccc(NC(=O)c2ccc(Br)cc2)c1 [Compound 42] :: 100
CCc1cc(C(F)(C(F)(F)F)C(F)(F)F)cc(C)c1NC(=O)c1cccc(NC(=O)c2snnc2C)c1 [Compound 35] :: 100

Qu. Please give the measured insecticidal ratio (ratio of the dead larvae) for this compound: Cc1cc(C(F)(C(F)(F)F)C(F)(F)F)cc(C)c1NC(=O)c1cccc(NC(=O)c2ccc(Cl)cc2)c1 [Compound 77]
Ans. 100

Qu. Please give the measured insecticidal ratio (ratio of the dead larvae) for this compound: CCc1cc(C(F)(C(F)(F)F)C(F)(F)F)cc(C)c1NC(=O)c1cccc(NC(=O)c2ccc(Cl)cc2Cl)c1 [Compound 44]
Ans. 100

Qu. Please give the measured insecticidal ratio (ratio of the dead larvae) for this compound: CCc1cc(C(F)(C(F)(F)F)C(F)(F)F)cc(C)c1NC(=O)c1cccc(NC(=O)c2ccccc2Cl)c1 [Compound 38]
Ans. 100
